- Tested on: PPARg:RXRa 30nM:10nM, anti-RXR (NR concentration 30 nM, RXRa partner concentration 10 nM)
- experimentalProtocol: PBM binding z-score (relative to random genomic background probes); higher = stronger binding; sequences stand for … in GC…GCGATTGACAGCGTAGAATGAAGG
measuredProperty: PBM binding z-score

> print(dat)
                              residues     measuredproperty  reading
 1  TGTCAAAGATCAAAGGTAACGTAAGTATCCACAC  PBM binding z-score     2.19
 2  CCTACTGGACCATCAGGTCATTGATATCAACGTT  PBM binding z-score    0.798
 3  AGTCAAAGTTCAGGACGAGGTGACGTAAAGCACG  PBM binding z-score     2.14
 4  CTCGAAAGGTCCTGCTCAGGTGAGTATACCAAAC  PBM binding z-score  -0.0279
 5  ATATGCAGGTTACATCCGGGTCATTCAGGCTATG  PBM binding z-score    0.935
 6  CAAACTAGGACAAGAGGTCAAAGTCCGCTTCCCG  PBM binding z-score     4.76
 7  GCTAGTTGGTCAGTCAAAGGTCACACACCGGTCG  PBM binding z-score     4.22
 8  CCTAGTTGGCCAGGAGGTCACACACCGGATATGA  PBM binding z-score    0.806
 9  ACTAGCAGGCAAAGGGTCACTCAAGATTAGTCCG  PBM binding z-score     4.68
10  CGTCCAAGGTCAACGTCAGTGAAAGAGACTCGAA  PBM binding z-score     1.61
11  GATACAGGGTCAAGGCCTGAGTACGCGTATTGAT  PBM binding z-score      2.3
12  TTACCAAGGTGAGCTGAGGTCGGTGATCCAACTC  PBM binding z-score  -0.0845
13  CAAACTAGGTCACCGGAAGATCAAAGTCCGCATG  PBM binding z-score     5.48
14  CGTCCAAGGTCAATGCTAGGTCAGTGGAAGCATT  PBM binding z-score     1.28
15  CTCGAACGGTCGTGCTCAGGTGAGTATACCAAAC  PBM binding z-score   -0.759
16  GCTATTAGTTGAACGGGCAACCGAATGATTCTCG  PBM binding z-score   -0.295
17  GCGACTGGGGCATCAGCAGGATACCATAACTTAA  PBM binding z-score   -0.491
18  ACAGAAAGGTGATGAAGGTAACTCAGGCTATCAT  PBM binding z-score     0.27
19  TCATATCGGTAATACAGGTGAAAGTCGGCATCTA  PBM binding z-score     3.92
20  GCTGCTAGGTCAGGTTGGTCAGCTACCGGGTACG  PBM binding z-score   -0.631
21  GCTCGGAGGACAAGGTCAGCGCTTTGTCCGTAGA  PBM binding z-score   -0.477
22  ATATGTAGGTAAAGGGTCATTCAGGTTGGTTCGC  PBM binding z-score     9.28
23  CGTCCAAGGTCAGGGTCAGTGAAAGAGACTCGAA  PBM binding z-score     1.28
24  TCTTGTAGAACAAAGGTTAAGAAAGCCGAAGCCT  PBM binding z-score     7.71
25  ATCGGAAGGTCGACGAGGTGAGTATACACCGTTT  PBM binding z-score   -0.112
26  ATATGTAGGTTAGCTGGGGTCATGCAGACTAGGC  PBM binding z-score     3.22
27  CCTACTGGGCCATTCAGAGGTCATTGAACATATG  PBM binding z-score     1.18
28  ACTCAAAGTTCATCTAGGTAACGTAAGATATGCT  PBM binding z-score     1.56
29  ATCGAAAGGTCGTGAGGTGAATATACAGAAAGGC  PBM binding z-score        2
30  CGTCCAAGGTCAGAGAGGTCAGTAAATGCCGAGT  PBM binding z-score     1.04
31  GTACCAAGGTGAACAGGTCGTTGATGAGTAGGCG  PBM binding z-score      0.3
32  CCAAGCAGGCCAATCTGGGTCACTCAAGGCTTGA  PBM binding z-score    0.227
33  CATACTGGGCCATCAGGTCATTGATATCAACGTT  PBM binding z-score     1.42
34  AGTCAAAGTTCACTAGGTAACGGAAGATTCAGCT  PBM binding z-score      3.1
35  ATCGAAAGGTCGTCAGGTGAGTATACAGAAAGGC  PBM binding z-score      1.5
36  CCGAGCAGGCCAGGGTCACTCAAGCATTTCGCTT  PBM binding z-score   -0.201
37  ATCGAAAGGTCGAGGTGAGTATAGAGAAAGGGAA  PBM binding z-score     1.28
38  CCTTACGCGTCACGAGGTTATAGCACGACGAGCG  PBM binding z-score   -0.172
39  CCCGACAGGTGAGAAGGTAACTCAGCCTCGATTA  PBM binding z-score     -0.2
40  CCGAGTAGGTTATGGGGCATTCTGGCAACGGTGA  PBM binding z-score     2.03
41  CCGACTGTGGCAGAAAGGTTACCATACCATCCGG  PBM binding z-score     1.73
42  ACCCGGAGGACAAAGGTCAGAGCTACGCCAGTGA  PBM binding z-score     3.97
43  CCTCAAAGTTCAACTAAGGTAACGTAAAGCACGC  PBM binding z-score     1.44
44  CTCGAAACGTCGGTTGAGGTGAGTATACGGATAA  PBM binding z-score   -0.256
